Values were extracted from patent US20150093336A1.

# Study Target: T1, Recombinant human MMR (R&D systems) (human, UniProt P22897 19-1383)
# T1 construct: Antigen of the PE-ELISA and the SPR; also called hMMR; recombinant hMMR
# T1 sequence: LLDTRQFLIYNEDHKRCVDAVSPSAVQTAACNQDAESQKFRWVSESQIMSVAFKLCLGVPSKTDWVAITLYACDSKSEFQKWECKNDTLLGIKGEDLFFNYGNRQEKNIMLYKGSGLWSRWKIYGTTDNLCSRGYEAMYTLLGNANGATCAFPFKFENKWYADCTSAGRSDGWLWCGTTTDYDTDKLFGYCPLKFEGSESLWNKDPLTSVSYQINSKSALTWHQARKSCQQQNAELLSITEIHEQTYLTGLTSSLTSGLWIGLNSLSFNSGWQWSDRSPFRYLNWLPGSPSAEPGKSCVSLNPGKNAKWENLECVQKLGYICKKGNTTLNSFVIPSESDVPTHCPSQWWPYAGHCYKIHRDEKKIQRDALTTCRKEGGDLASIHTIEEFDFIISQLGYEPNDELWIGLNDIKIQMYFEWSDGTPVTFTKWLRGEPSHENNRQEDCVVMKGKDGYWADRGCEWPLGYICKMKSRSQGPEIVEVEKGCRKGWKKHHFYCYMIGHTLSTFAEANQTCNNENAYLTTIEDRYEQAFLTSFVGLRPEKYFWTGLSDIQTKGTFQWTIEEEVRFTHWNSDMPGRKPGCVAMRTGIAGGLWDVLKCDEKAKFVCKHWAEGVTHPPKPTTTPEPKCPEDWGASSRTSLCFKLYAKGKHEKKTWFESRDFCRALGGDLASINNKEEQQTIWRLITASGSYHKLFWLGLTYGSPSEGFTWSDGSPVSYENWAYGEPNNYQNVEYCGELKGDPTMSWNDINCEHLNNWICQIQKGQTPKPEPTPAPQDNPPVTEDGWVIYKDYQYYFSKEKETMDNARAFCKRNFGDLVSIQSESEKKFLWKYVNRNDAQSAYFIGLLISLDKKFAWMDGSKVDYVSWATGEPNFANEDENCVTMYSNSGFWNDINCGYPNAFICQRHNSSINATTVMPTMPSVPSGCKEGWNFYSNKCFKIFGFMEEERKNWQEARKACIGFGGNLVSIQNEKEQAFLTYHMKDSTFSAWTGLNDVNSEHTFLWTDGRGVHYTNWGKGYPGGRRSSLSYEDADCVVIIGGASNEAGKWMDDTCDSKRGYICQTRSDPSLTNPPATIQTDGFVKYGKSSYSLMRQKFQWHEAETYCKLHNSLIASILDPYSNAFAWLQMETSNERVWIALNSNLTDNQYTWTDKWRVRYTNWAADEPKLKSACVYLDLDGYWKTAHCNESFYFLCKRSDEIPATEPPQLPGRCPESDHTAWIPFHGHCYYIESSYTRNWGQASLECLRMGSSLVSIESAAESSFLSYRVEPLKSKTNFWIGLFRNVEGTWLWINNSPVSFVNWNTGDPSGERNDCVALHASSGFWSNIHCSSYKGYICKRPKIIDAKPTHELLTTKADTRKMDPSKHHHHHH
# Test Details: SPR, BIAcore T100; human MMR on CM5 chip, sdAb as analyte
Measure Name: pKd
Field pKd (float): negative decimal logarithm of the concentration in molar.

- Binder: "NbhmMMRm24.31 (VHH, Produced from pMECS with C-terminal HA and 6xHis tag) VHH: QVQLQESGGGLVQPGGSLRLSCTATGFTLKNHHIGWLRQAPGKEREGVASINSSGGSTNYADSVQGRFTISRDNAKNTVFLQMNSLKSEDTAVYYCARLRRYYGLNLDPGSYDYWGQGTQVTVSS"
  Measure Name: "pKd"
  Obs Value: 8.57
- Binder: "NbhMMRm2.15 (VHH, Produced from pMECS with C-terminal HA and 6xHis tag) VHH: QVQLQESGGGLVQPGESLRLSCKLSGFTLDYYDIGWFRQAPGKEREGVSCISSIGGSANYADSVKGRFTISRDNVKNTVYLQMNSLKPEDTAIYYCAAEAQTPYNDGDCTRASYDYWGQGIQVTVSS"
  Measure Name: "pKd"
  Obs Value: 8.07
- Binder: "NbhMMRm16.95 (VHH, Produced from pMECS with C-terminal HA and 6xHis tag) VHH: QVQLQESGGGLVQPGGSLGLSCAASGRIASISAMGWYRQAPGKQRELVAAITGSGRTNYADSVKGRFTISRDNAKNTVYLQMNSLKPEDTAVYYCNLLMVDYGLGLGTDYWGQGTQVTVSS"
  Measure Name: "pKd"
  Obs Value: 7.68

Okay, now this binder:
INPUT: Given NbhMMRm11.5 (VHH, Produced from pMECS with C-terminal HA and 6xHis tag) VHH: QVQLQESGGGLVQPGGSLMLSCAASGNIFTINRMGWYRQAPGKQRELVAAITSGGNTNYADSVKGRFTISRDNAKNTVYLQMNSLKPEDTAVYYCNAAIVTMTSPYSDYWGQGTQVTVSS , respond with its pKd.
OUTPUT: 7.26
